# Protocol Notes: Plitidepsin whole blood pharmacokinetics, non-compartmental
# Assay type: in vivo
# Condition Context: human, iv, Dose level 2 4.0/1.3/40.0, Day 1 of Cycle 1, 3-h i.v. infusion, NCA, UPLC-MS/MS, mean (SD), n = 3
Numbered stars: 1 amine (or outer) side, 2 acyl side, 3 side chain; on linkers, the order of the positions; unused ones are H or OH. Bridge positions count the residues as written; N and C are the ends. Square brackets hold non-standard residues; d marks the D form. Peptide text beside a SMILES is read from it. * marks the point of attachment. X1 = CC[C@H](C)[C@@H](N[*:1])[C@@H](O)CC(=O)O[C@H](C(=O)[C@H](C)C(=O)[*:2])C(C)C; NMeY = CN[C@@H](Cc1ccc(O)cc1)C(=O)O; dNMeL = CN[C@H](CC(C)C)C(=O)O; Pyruvoyl = CC(=O)C(=O)*
Measurement Name: Cmax (ng/mL)
Value expressed in ng/mL; do not type the unit.

## Input Give recorded Cmax. CC[C@H](C)[C@H]1NC(=O)[C@@H](NC(=O)[C@@H](CC(C)C)N(C)C(=O)[C@@H]2CCCN2C(=O)C(C)=O)[C@@H](C)OC(=O)[C@H](Cc2ccc(OC)cc2)N(C)C(=O)[C@@H]2CCCN2C(=O)[C@H](CC(C)C)NC(=O)[C@@H](C)C(=O)[C@H](C(C)C)OC(=O)C[C@@H]1O [Plitidepsin, plitidepsin] (Pyruvoyl-P[dNMeL]T[X1]LP[NMeY](Me); ester 3-C (inferred); N-terminus assumed)
## Output 117
